PROTOCOL TEXT: PP-LFER solute descriptor determination from GC retention and partition coefficient data
Format: physicochemical
CONDITION DETAILS: 25 °C; updated in the iterative calculation
Parameter: Solute descriptor L (logarithmic hexadecane/air partition coefficient, KHxd/air). Scope: all listed entries.
READOUT: Solute descriptor L (logarithmic hexadecane/air partition coefficient, KHxd/air)

| MOLECULE | NUMBER |
| --- | --- |
| OCCC(F)(F)C(F)(F)C(F)(F)C(F)(F)C(F)(F)C(F)(F)C(F)(F)C(F)(F)F | 3.554 |
| C=C(C)C(=O)OCCC(F)(F)C(F)(F)C(F)(F)C(F)(F)F [4:2 FTMAC, 1H,1H,2H,2H-Perfluorohexyl methacrylate] | 3.990 |
| CNS(=O)(=O)C(F)(F)C(F)(F)C(F)(F)C(F)(F)F [MeFBSA, N-Methylperfluorobutanesulfonamide] | 3.566 |

----------
Parameter: Solute descriptor L (logarithmic hexadecane/air partition coefficient, KHxd/air). Scope: all listed entries.
PROTOCOL TEXT: PP-LFER solute descriptor determination from GC retention and partition coefficient data
Format: physicochemical
READOUT: Solute descriptor L (logarithmic hexadecane/air partition coefficient, KHxd/air)

| COMPOUND | NUMBER |
| --- | --- |
| OCCC(F)(F)C(F)(F)C(F)(F)C(F)(F)C(F)(F)C(F)(F)C(F)(F)C(F)(F)C(F)(F)C(F)(F)C(F)(F)C(F)(F)F [12:2 FTOH, 1H,1H,2H,2H-Perfluorotetradecan-1-ol] | 4.682 |
| FC(F)(F)C(F)(F)C(F)(F)C(F)(F)C(F)(F)C(F)(F)C(F)(F)C(F)(F)C(F)(F)C(F)(F)CCI [10:2 FTI, 1H,1H,2H,2H-Perfluorododecyl iodide] | 5.020 |
| NS(=O)(=O)C(F)(F)C(F)(F)C(F)(F)C(F)(F)C(F)(F)C(F)(F)C(F)(F)C(F)(F)F [PFOSA, Perfluorooctanesulfonamide] | 4.744 |

----------
PROTOCOL TEXT: PP-LFER solute descriptor determination from GC retention and partition coefficient data
Type: physicochemical
Parameter: Solute descriptor L (logarithmic hexadecane/air partition coefficient, KHxd/air). Scope: all listed entries.
READOUT: Solute descriptor L (logarithmic hexadecane/air partition coefficient, KHxd/air)

| MOLECULE | NUMBER |
| --- | --- |
| FC(OC(F)(F)C(F)(OC(F)(F)C(F)(OC(F)(F)C(F)(F)C(F)(F)F)C(F)(F)F)C(F)(F)F)C(F)(F)F (stereo not drawn) | 1.899 |
| C=Cc1ccc(C(F)(F)C(F)(F)C(F)(F)C(F)(F)C(F)(F)C(F)(F)C(F)(F)C(F)(F)F)cc1 | 5.645 |
| C=CC(F)(F)C(F)(F)C(F)(F)C(F)(F)C(F)(F)C(F)(F)C(F)(F)C(F)(F)C(F)(F)C(F)(F)F | 3.031 |
| CN(CCO)S(=O)(=O)C(F)(F)C(F)(F)C(F)(F)C(F)(F)C(F)(F)C(F)(F)C(F)(F)C(F)(F)F | 5.909 |
| C=C(C)C(=O)OCCC(F)(F)C(F)(F)C(F)(F)C(F)(F)C(F)(F)C(F)(F)C(F)(F)C(F)(F)C(F)(F)C(F)(F)F | 5.671 |
| FC(F)(F)C(F)(F)C(F)(F)C(F)(F)C(F)(F)C(F)(F)C(F)(F)C(F)(F)C(F)(F)C(F)(F)I [PFDI, Perfluorodecyl iodide] | 3.623 |
